Quick list: ΔlogR DMR Mean per entry.
- measured target: human sweet taste receptor (hT1R2/hT1R3) (Homo sapiens, UniProt Q7RTX0+Q8TE23)
- Construct: expressed in transfected cells
- assay info: DMR assay (Epic reader) on R2/R3 U2OS cells, endogenous G proteins
- Format: cell-based
- experimental setup: Table 2; operational model, logR minus sucralose logR
Residues, ends and D or L forms follow the SMILES beside them.
measurement kind: ΔlogR DMR Mean

[[record]]
compound = "COC(=O)[C@H](Cc1ccccc1)NC(=O)[C@H](CC(=O)O)NC(=O)Nc1ccc(C#N)cc1"
measurement_kind = "ΔlogR DMR Mean"
measurement = 1.04

[[record]]
compound = "CC(C)Oc1ccc(NC(=S)NCc2cccs2)cc1"
measurement_kind = "ΔlogR DMR Mean"
measurement = 1.84

[[record]]
compound = "CC(C)Oc1ccc(NC(=S)NCc2ccc[nH]2)cc1"
measurement_kind = "ΔlogR DMR Mean"
measurement = 2.52

[[record]]
compound = "C[C@@H](NC(=O)[C@@H](N)CC(=O)O)C(=O)NC1C(C)(C)SC1(C)C"
measurement_kind = "ΔlogR DMR Mean"
measurement = 0.35

[[record]]
compound = "C[C@H](NC(=Nc1ccc(C#N)cc1)NCC(=O)O)c1ccccc1"
measurement_kind = "ΔlogR DMR Mean"
measurement = 1.38

[[record]]
compound = "COC(=O)[C@H](Cc1ccccc1)NC(=O)[C@@H](N)CC(=O)O [Aspartame] (H-Asp-Phe-OMe)"
measurement_kind = "ΔlogR DMR Mean"
measurement = "−0.72"

[[record]]
compound = "CC1=CC(=O)NS(=O)(=O)O1"
measurement_kind = "ΔlogR DMR Mean"
measurement = "−0.99"

[[record]]
compound = "CCCOc1ccc([N+](=O)[O-])cc1N"
measurement_kind = "ΔlogR DMR Mean"
measurement = 1.31

[[record]]
compound = "COC(=O)[C@H](Cc1ccccc1)NC(=O)[C@H](CC(=O)O)NCCC(C)(C)C"
measurement_kind = "ΔlogR DMR Mean"
measurement = 1.15

[[record]]
compound = "CCOc1ccc(NC(N)=O)cc1"
measurement_kind = "ΔlogR DMR Mean"
measurement = 0.20

[[record]]
compound = "COCc1cncc(-c2ccc(C(C)(C)C(=O)NCC(C)C)cc2)n1"
measurement_kind = "ΔlogR DMR Mean"
measurement = 1.91

[[record]]
compound = "Cc1cc(C)c2c(c1)[C@H](NC(=O)c1conc1C)CCC2"
measurement_kind = "ΔlogR DMR Mean"
measurement = 2.07

[[record]]
compound = "C=C1C[C@@]23CC[C@H]4[C@@](C)(CCC[C@@]4(C)C(=O)O[C@@H]4O[C@H](CO)[C@@H](O)[C@H](O)[C@H]4O)[C@@H]2CC[C@]1(O[C@@H]1O[C@H](CO)[C@@H](O)[C@H](O)[C@H]1O[C@@H]1O[C@H](CO)[C@@H](O)[C@H](O)[C@H]1O)C3 [Stevioside]"
measurement_kind = "ΔlogR DMR Mean"
measurement = 0.09

[[record]]
compound = "O=C1NS(=O)(=O)c2ccccc21"
measurement_kind = "ΔlogR DMR Mean"
measurement = "−0.31"


* * *

- Tested on: EGF response in R2/R3 U2OS cells
- assay info: Pathway blockers on EGF-mediated DMR response in R2/R3 U2OS cells
- experimental setup: 100–300 ng/ml EGF; latrunculin A 1 μM, GW583340 10 μM, tyrphostin 1 μM, GSK269962 2 μM
measurement kind: effect on the EGF DMR response, in words

[[record]]
structure_string = "CS(=O)(=O)CCNCc1nc(-c2ccc3ncnc(Nc4ccc(OCc5cccc(F)c5)c(Cl)c4)c3c2)cs1"
measurement = "abolished"

[[record]]
structure_string = "COc1cc2ncnc(Nc3cccc(Cl)c3)c2cc1OC"
measurement = "abolished"


* * *

- measured target: human sweet taste receptor (hT1R2/hT1R3) coupled to Gα15 (Homo sapiens, UniProt Q7RTX0+Q8TE23)
- Construct: expressed in transfected cells
- assay info: FLIPR calcium mobilization assay, R2/R3 U2OS cells transduced with Gα15 baculovirus
- Format: cell-based
- experimental setup: ΔlogR FLIPR-Gα15 minus ΔlogR DMR
Residues, ends and D or L forms follow the SMILES beside them.
Lab note: compare ΔΔlogR Mean against 0.2. Equal or greater, write rule met. Smaller, write rule not met.

[[record]]
compound = "C[C@@H](NC(=O)[C@@H](N)CC(=O)O)C(=O)NC1C(C)(C)SC1(C)C [Alitame]"
label_class = "rule not met"

[[record]]
compound = "COCc1cncc(-c2ccc(C(C)(C)C(=O)NCC(C)C)cc2)n1 [S1313]"
label_class = "rule met"

[[record]]
compound = "CC(C)Oc1ccc(NC(=S)NCc2ccc[nH]2)cc1 [S819]"
label_class = "rule met"

[[record]]
compound = "COC(=O)[C@H](Cc1ccccc1)NC(=O)[C@@H](N)CC(=O)O [Aspartame] (H-Asp-Phe-OMe)"
label_class = "rule not met"

[[record]]
compound = "CC(C)Oc1ccc(NC(=S)NCc2cccs2)cc1 [S5227]"
label_class = "rule met"

[[record]]
compound = "COC(=O)[C@H](Cc1ccccc1)NC(=O)[C@H](CC(=O)O)NC(=O)Nc1ccc(C#N)cc1 [Superaspartame]"
label_class = "rule not met"


* * *

- measured target: human sweet taste receptor (hT1R2/hT1R3) (Homo sapiens, UniProt Q7RTX0+Q8TE23)
- Construct: expressed in transfected cells
- Sequence (Q8TE23 20-839): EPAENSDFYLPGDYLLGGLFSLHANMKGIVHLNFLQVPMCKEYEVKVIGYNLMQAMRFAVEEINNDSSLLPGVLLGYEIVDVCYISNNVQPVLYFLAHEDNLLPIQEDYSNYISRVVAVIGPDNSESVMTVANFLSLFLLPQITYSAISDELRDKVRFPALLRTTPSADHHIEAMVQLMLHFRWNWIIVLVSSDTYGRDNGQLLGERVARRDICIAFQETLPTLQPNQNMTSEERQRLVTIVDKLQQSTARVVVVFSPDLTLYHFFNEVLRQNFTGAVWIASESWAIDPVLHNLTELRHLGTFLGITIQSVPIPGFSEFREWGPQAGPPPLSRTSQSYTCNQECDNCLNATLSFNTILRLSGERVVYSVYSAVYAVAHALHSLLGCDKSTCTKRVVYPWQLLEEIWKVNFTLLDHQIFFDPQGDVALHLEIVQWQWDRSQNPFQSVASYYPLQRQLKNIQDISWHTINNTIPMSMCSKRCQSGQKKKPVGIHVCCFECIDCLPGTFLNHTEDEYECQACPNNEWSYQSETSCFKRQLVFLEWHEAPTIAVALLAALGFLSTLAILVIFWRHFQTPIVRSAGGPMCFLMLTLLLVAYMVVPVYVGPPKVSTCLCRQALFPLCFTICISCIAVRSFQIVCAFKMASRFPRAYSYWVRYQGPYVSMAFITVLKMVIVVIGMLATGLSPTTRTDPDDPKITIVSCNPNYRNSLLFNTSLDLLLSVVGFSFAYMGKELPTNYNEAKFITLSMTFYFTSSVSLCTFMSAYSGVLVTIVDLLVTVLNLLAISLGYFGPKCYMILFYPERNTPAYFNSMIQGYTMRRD
- Sequence (Q7RTX0 21-852): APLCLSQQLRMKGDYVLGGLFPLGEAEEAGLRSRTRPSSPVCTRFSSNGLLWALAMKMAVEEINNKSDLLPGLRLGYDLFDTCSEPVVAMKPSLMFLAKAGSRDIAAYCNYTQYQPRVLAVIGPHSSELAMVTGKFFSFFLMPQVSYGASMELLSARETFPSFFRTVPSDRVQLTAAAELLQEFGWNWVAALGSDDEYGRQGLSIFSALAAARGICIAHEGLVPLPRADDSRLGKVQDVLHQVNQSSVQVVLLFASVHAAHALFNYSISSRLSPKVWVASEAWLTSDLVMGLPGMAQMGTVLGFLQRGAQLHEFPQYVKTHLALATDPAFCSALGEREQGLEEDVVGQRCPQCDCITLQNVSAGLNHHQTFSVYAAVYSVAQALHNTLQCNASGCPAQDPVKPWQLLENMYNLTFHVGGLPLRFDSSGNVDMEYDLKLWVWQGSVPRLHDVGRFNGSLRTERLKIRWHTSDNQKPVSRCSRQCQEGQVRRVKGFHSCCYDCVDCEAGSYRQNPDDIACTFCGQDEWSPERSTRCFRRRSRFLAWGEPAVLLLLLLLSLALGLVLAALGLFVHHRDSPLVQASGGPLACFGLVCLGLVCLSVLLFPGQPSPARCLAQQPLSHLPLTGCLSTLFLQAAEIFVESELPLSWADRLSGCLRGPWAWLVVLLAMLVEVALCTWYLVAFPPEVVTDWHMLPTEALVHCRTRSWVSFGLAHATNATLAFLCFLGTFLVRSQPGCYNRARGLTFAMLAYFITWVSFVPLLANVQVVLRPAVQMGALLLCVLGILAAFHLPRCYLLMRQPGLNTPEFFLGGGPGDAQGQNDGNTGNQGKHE
- assay info: DMR assay (Epic reader) on R2/R3 U2OS cells, endogenous G proteins
- Type: cell-based
- experimental setup: top asymptote of dose-response normalized to 1 mM sucralose
Marks after values point to notes of the source that are not given here.
measurement kind: Activity in DMR assay Emax

[[record]]
structure_string = "CC(C)Oc1ccc(NC(=S)NCc2ccc[nH]2)cc1"
measurement = "143*"

[[record]]
structure_string = "CCOc1ccc(NC(N)=O)cc1"
measurement = "57****"

[[record]]
structure_string = "C[C@H](NC(=Nc1ccc(C#N)cc1)NCC(=O)O)c1ccccc1"
measurement = "97**"

